system under test: 5-hydroxytryptamine receptor 5A (Homo sapiens) (UniProt P47898)
Sequence (P47898 whole entry, looked up): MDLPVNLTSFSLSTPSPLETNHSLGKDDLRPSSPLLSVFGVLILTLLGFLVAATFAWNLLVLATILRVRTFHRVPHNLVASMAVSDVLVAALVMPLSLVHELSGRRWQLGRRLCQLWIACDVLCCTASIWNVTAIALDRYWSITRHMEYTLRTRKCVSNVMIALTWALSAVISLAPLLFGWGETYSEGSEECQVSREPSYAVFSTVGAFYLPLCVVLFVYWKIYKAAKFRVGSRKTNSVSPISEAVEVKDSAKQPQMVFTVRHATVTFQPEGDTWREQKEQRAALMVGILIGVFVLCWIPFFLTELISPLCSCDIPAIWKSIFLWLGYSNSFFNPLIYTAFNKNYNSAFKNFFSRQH
procedure details: activation of human 5-HT5A receptor – cell-based, luminescence, full-deck HTS, counter-screen for OPRM1-OPRD1 heterodimer agonist project, primary screen (AID 504692);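 also: 0% = cells with vehicle only and 100% = reference agonist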
settings: HTR5A agonist assay, at 9.3 µM
Hit rate of the full screen: of about 340,000 compounds, about 2,000 (0.59%) were called active. Rule as the data show it: active = activation mostly above about 9.5% (no sharp cut-off); inactive = mostly below about 7.6%. The entries come from a sample that favours actives as a whole.
Please answer using one outcome listed in 1 = active, 0 = inactive

Answered cases to consult:
structure smiles string | category
CC(=O)NCCC(=O)Nc1cc(S(=O)(=O)N2CCOCC2)ccc1N1CCOCC1 | 0
O=C(CNCc1ccco1)Nc1cc(S(=O)(=O)N2CCOCC2)ccc1N1CCCC1 | 1
CCCCCCCCCCOC(=O)Cn1c(COc2ccc(C)cc2)[n+](C)c2ccccc21 | 1

**Query** Short answer needed: outcome of this test for CCOC(=O)CNC(=O)CSc1nnc(-c2cccc(OC)c2)n1CC ?
**Result** 0

====

system under test: 5-hydroxytryptamine receptor 5A (Homo sapiens)
procedure details: activation of human 5-HT5A receptor – cell-based, luminescence, full-deck HTS, counter-screen for OPRM1-OPRD1 heterodimer agonist project, primary screen (AID 504692);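 also: 0% = cells with vehicle only and 100% = reference agonist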
settings: HTR5A agonist assay, at 9.3 µM, hits give high values
Among all 340,000 compounds or so, about 2,000 (0.59%) were called active. The entries come from a sample that favours actives as a whole.
reported endpoint: activation (%)
Give the value, in units of %, as a plain number.

Worked examples follow.
molecule | activation / %
CC1C(C)N(C(=O)CCl)c2ccccc2N1C(=O)CCl (stereo not given) | 8.76
O=C(COc1ccccc1F)Nc1nc(-c2ccccn2)cs1 | -1.27
CCCCCN(C(=O)NC(=O)Nc1ccccc1OC)S(C)(=O)=O | -1.57
CNc1nnc(-c2ccco2)s1 | 15.4
COC(=O)c1c(-c2ccsc2)oc2ccc(-c3cc(OC)c(OC)c(OC)c3)cc12 | 6.62
COc1ccc2c(CC(=O)OCC(=O)Nc3ccccc3[N+](=O)[O-])coc2c1 | -1.41
COc1ccc(S(=O)(=O)N2CCOC2CNC(=O)C(=O)NCc2ccncc2)cc1OC (stereo not given) | 1.9
COc1cccc(/C=N/NC(=O)c2[nH]nc3c2CCc2ccccc2-3)c1O | 18.3

**Query** Value wanted: activation (5-hydroxytryptamine receptor 5A (Homo sapiens)) of entry O=C(/C=C/c1cccc([N+](=O)[O-])c1)NCCSCc1ccco1
**Result** -1.08

**Query** Reported activation for 5-hydroxytryptamine receptor 5A (Homo sapiens), given CC(C)(C)OC(=O)CNC(=O)c1[nH]cnc1C(=O)N[C@@H](Cc1ccccc1)C(=O)OCc1ccccc1 ?
**Result** 9.43

**Query** Reported activation for 5-hydroxytryptamine receptor 5A (Homo sapiens), given COc1ccc(-c2ccc3c(c2)[C@@H]2C[C@H](N(C)S(=O)(=O)c4ccccc4)[C@H]([C@H](C)O)C(=O)N2CC3)cc1 ?
**Result** 2.65

**Query** // map O=C(CSc1nnc(-c2ccc([N+](=O)[O-])cc2)o1)Nc1ccccn1 to recorded activation (system: 5-hydroxytryptamine receptor 5A (Homo sapiens))
**Result** 0.96

**Query** Query for 5-hydroxytryptamine receptor 5A (Homo sapiens): what activation does the record show for CCOc1ccc2[nH]c(C(=O)N/N=C/c3cccc(OC)c3OC)cc2c1 ?
**Result** 4.96

**Query** For 5-hydroxytryptamine receptor 5A (Homo sapiens), provide activation of COc1ccc(/C=C2/CCCc3ccccc3C2=O)cc1 please.
**Result** -2.8

====

system under test: 5-hydroxytryptamine receptor 5A (Homo sapiens)
procedure details: activation of human 5-HT5A receptor – cell-based, luminescence, full-deck HTS, counter-screen for OPRM1-OPRD1 heterodimer agonist project, primary screen (AID 504692);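 also: 0% = cells with vehicle only and 100% = reference agonist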
settings: HTR5A agonist assay, at 9.3 µM
Among all 340,000 compounds or so, about 2,000 (0.59%) were called active. Rule as the data show it: active = activation mostly above about 9.5% (no sharp cut-off); inactive = mostly below about 7.6%. Many of the other results were omitted from the sample, so actives are more common in it than they were.
Log the outcome using a class from YES (active), NO (inactive)

Known results for compounds:
compound | system under test | category
CC1CCCCN1CCCNc1ccc(C(CC(N)=O)NC(=O)c2ccccc2)cc1[N+](=O)[O-] (configuration not stated) | 5-hydroxytryptamine receptor 5A (Homo sapiens) | NO
O=C(CCC(=O)c1cccs1)Nc1nc2ccccc2s1 | 5-hydroxytryptamine receptor 5A (Homo sapiens) | NO
Cc1ccc(C)c(N2CCN(S(=O)(=O)c3ccc4c(c3)oc(=O)n4C)CC2)c1 | 5-hydroxytryptamine receptor 5A (Homo sapiens) | NO
CC[C@]12c3[nH]c4cc(CCC(=O)N(C)C)ccc4c3CCN1C(=O)[C@@H](CC(=O)NCCCN(C)C)C[C@@H]2C(=O)N1CCN(C(=O)c2ccco2)CC1 | 5-hydroxytryptamine receptor 5A (Homo sapiens) | YES
Cc1ccc(C)c(N2CCN(S(=O)(=O)c3c(C)[nH]c(C)c3C(=O)N3CCCC3)CC2)c1 | 5-hydroxytryptamine receptor 5A (Homo sapiens) | NO

**Query** Identify the outcome logged in this assay for the compound shown: Cc1ccc(Cn2c(SCC(=O)N/N=C/c3ccccc3OCC(=O)O)nc3ccccc32)cc1
**Result** YES

**Query** How was Cn1c(=O)[nH]c(=O)c2c1nc(N(CCO)Cc1ccccc1)n2Cc1ccccc1Cl classified in this test?
**Result** NO

**Query** Each compound tested received a call. Report the one for CCN(CC(=O)Nc1ccc(S(=O)(=O)N2CCCC2)cc1)CC(=O)Nc1cccc(OC)c1 .
**Result** NO

**Query** Name the outcome recorded for COc1ccc(CNC(=O)CN(Cc2ccccc2Cl)C(=O)c2csnn2)cc1 in the assay.
**Result** NO

**Query** Given CCN(CC(=O)Nc1cccc(S(=O)(=O)N2CCCCC2)c1)Cc1ccccc1 , state the outcome it received in this test.
**Result** YES

**Query** I'd appreciate the recorded outcome for CCOC(=O)N1CCC(Nc2c(NCCCN3CCN(c4ccc(OC)cc4)CC3)c(=O)c2=O)CC1 from this test.
**Result** NO

**Query** For NC(=O)c1ncn([C@@H]2O[C@H](CNCc3cnc(N4CCOCC4)s3)[C@@H](O)[C@H]2O)n1 , what call appears in the results of this test?
**Result** NO

====

This listing pairs compounds with measured activation.
system under test: 5-hydroxytryptamine receptor 5A (Homo sapiens) (UniProt P47898)
procedure details: activation of human 5-HT5A receptor – cell-based, luminescence, full-deck HTS, counter-screen for OPRM1-OPRD1 heterodimer agonist project, primary screen (AID 504692);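 also: 0% = cells with vehicle only and 100% = reference agonist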
settings: HTR5A agonist assay, at 9.3 µM, hits give high values
Hit rate of the full screen: of about 340,000 compounds, about 2,000 (0.59%) were called active. Many of the other results were omitted from the sample, so actives are more common in it than they were.
The answer is to be given in %; state only the numeric part.

Take a look at these entries with their results.
compound | unit abbreviation | activation
O=C(CN1C(=O)C2C3C=CC(C3)C2C1=O)NCCc1ccccc1Cl (stereo not given) | % | -1.28
Cc1cccc(N2CCN(C(=O)CCS(=O)(=O)c3ccc4c(c3)NC(=O)C(C)S4)CC2)c1C (stereo not given) | % | 2.41
Cc1ccc(/C([O-])=C(/C(=S)NCc2ccco2)[n+]2ccccc2)cc1[N+](=O)[O-] | % | 0.24
OC(COCCC12CC3CC(CC(C3)C1)C2)CN1CCCCC1 (stereo not given) | % | 3.12

--- query ---
**Query** Given CCOC(=O)c1c(/N=C/c2cc(C)ccc2O)sc2c1CCC2 , state its recorded activation.
**Result** 3.38

====

system under test: 5-hydroxytryptamine receptor 5A (Homo sapiens)
procedure details: activation of human 5-HT5A receptor – cell-based, luminescence, full-deck HTS, counter-screen for OPRM1-OPRD1 heterodimer agonist project, primary screen (AID 504692);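 also: 0% = cells with vehicle only and 100% = reference agonist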
settings: HTR5A agonist assay, at 9.3 µM
Among all 340,000 compounds or so, about 2,000 (0.59%) were called active. No stated cut-off is given here; in the data, active means activation mostly above about 9.5% (no sharp cut-off); inactive means mostly below about 7.6%. This is one part of a sample in which actives are shown more often than they occur.
Could you please pick one outcome from this set? y (active), n (inactive)

molecule | system under test | category
COc1ccc(Cl)cc1NC(=O)CN(C)C(=O)c1cc(-c2cccs2)nn1-c1ccccc1 | 5-hydroxytryptamine receptor 5A (Homo sapiens) | n
CCN(CC)CCNS(=O)(=O)c1ccc(/C=C/C(=O)O)cc1 | 5-hydroxytryptamine receptor 5A (Homo sapiens) | n
O=C(Nc1ccncc1)c1cc(-c2ccccn2)nc2ccc(Br)cc12 | 5-hydroxytryptamine receptor 5A (Homo sapiens) | n
Cc1ccc(S(=O)(=O)/N=C(/Nc2ccc3[nH]c(=O)[nH]c3c2)c2ccccc2)cc1 | 5-hydroxytryptamine receptor 5A (Homo sapiens) | n

**Query** Name the outcome recorded for O=C(O)c1ccc2c(=O)n3c(nc2c1)/C(=C/c1ccc(OC(F)F)cc1OC(F)F)CC3 in the assay.
**Result** n

**Query** What did the test return for CN(C)CCCO/N=C(\c1ccccc1)c1ccncc1 ?
**Result** n

**Query** Can you look up the reported call for O=C(NCCS(=O)(=O)c1ccc(Br)cc1)c1ccccc1Cl for me?
**Result** n

**Query** Which result was noted for this molecule in the test: Cc1c(C(=O)OCC(=O)N(CCC#N)c2ccccc2)oc2c1ccc1ccccc12
**Result** y

**Query** Just curious, what result did C=C(C)CSc1nnc(-c2ccc(C)cc2)n1N get here?
**Result** n
